- measured target: T1, murine CD300LB on wild type mouse bone marrow macrophages (mouse, UniProt Q3U497 18-209)
- T1 construct: Endogenous receptor on primary cells; also called mCD300LB; Wt BMM
- T1 sequence: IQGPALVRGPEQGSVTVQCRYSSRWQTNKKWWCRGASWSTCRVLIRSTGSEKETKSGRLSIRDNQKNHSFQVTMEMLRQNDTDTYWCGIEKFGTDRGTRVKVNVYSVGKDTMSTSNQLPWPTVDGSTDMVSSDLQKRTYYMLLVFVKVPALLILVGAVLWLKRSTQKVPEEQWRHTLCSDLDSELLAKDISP
- method: flow cytometry, wild type mouse bone marrow macrophages, 10 ug/mL, isotype subtracted
readout kind: gMFI (gMFI)
Write the number in gMFI without appending the unit.

Exercise: I am curious: what gMFI value has been reported for anti-CD300LB antibody CD-10 (antibody, V domains shown) VH: QVQLQQSGPELVRPGVSVKISCKGSGYTFTDYAMHWVKQSHVRSREWIGVIGTYNGHTNYNQKFKGKATMTVDKSSSTAYLELARLTSEDSAIYYCARSGSYYYSMDYWGQGTSVTVSS VL: QIVLTQSPAIMSASPGEKVTMTCSASSSVNYMHWYQQKSGTSPKRWIYDTSKLSSGVPARFSGSGSGTSYSLTISTMEAEDAATYYCQQWSSNPPMTFGGGTKLEIK ?
Solution: 192

Exercise: I am curious: what gMFI value has been reported for anti-CD300LB antibody CD-15 (antibody, V domains shown) VH: QIQLVQSGPELKKPGETVKISCQVSGYTFTDYSMHWLKQAPGKGLKWMAWINTETGESTYTDEFKGRFVFSLETSVRTAYLKINNLKNEDTATYFCGTYGSSYGMAYWGQGTSVTVSS VL: DIVLTQSPASLPVSLGQRATISCRASKSVSTSGSSYLHWYQQKPGQPPKLLIYLASKLESGVPARFRGSGSGTDFTLNIHPVEEEDAATYYCQHNREVPPTFGGGTKLEIK ?
Solution: 256
